Each recorded value in this set is attributed to PubChem BioAssay (NCI).

ASSAY_OVERVIEW: NCI Yeast Anticancer Drug Screen. Data for the mlh1 rad18 strain (AID 175)
SETTINGS: S. cerevisiae mlh1 rad18 strain growth inhibition; at 50.0 µM
About 79,000 compounds went through this panel and 15% of them were active in at least one assay; those are over-represented in the sample as a whole. The source made the active and inactive calls. Rule as the data show it: active = growth inhibition above about 70%; inactive = the rest.
Outcome codes: active, inactive

MOLECULE	DISCRETE_LABEL
COc1ccc(NC(=O)/C(=C/N2C(=O)/C(=C/c3ccc(OC)c(OC)c3)NC2=S)C(C)=O)cc1	active
CN=C(N)N/N=C(\C)c1ccc2c(c1)Cc1ccccc1-2	active
CCCOS(=O)(=O)c1ccccc1	inactive
CC[n+]1ccc(Nc2ccc(NC(=O)c3ccc(Nc4cc[n+](CC)c5ccc([N+](=O)[O-])cc45)cc3)cc2)cc1	active
CC(/C=N/NC(N)=S)Cc1ccc(C(C)C)cc1 (centres undefined)	active
C=C1C(=O)C2=CC1CCC(=O)C1(C)CCC(OC(C)=O)C(C)(C)C1CC2O (centres undefined)	active
Cc1ccc(N2C(=O)C=CC2=O)cc1	active
CC(C)=CCCC(C)C1=C(O)C(=O)C(C)=CC1=O (centres undefined)	active
CCCCCCC1N=C(N)N=C(N)N1c1cccc(Cl)c1 (centres undefined)	active
O=C1C=CC(O)=CC1=P(c1ccccc1)(c1ccccc1)c1ccccc1	inactive
Cc1c2c(c(C)c3c[n+](C)ccc13)Oc1ccccc1O2	inactive
CCCCCCCCCCCC(=O)OC(C)C(=O)NCCCC (centres undefined)	active
O=C1C=CC(=O)N1c1ccc(O)cc1	active
CCCCC(C=O)(C=C=C(C)C)CC (centres undefined)	inactive
c1ccc(-c2cccc(-c3ccccn3)n2)nc1	active
COc1cc(NCc2ccc3nc(N)nc(N)c3c2C)cc(OC)c1OC (tested in a mixture with another compound)	inactive
c1ccc(-c2cc3cc4ccccc4cn3c2)cc1	active
S=C(SSC(=S)N1CCOCC1)N1CCOCC1	active
OC(Cc1cc(CC(O)(C(F)(F)F)C(F)(F)F)nc(CC(O)(C(F)(F)F)C(F)(F)F)c1)(C(F)(F)F)C(F)(F)F	active
C(=N\Nc1ccc2ccccc2n1)/c1ccccn1	active
O=[N+]([O-])c1ccc2c(c1)Cc1ccccc1-2	inactive
Cc1cc(N/N=C/c2ccccn2)nc2ccccc12	active
CN(C)c1ccc(C(=C2C=CC(=[N+](C)C)C=C2)c2ccc(N(C)C)cc2)cc1	active
COc1cc(/C=C/C(=O)CC(=O)/C=C/c2ccc(O)c(OC)c2)ccc1O	active
Cc1c(O)ccc(SC#N)c1C	active
CC(C)c1ccc(Nc2n[nH]c(=S)s2)cc1	active
CCCCCCCCC(=O)OCCCC(CCC(CCC1CCCO1)OC(=O)CCCCCCCC)OC(=O)CCCCCCCC (centres undefined)	inactive
O=C(/C=C/C(Cl)(Cl)Cl)Nc1ccc(Cl)cc1	active
Nc1ccc(-c2ccc(N)c(S(=O)(=O)O)c2)cc1S(=O)(=O)O	inactive
C/C=C/c1cc2c(c(=O)o1)C(=O)[C@@H](O)[C@H](C)O2	inactive
COC(=O)c1ccc(Cl)c(NN)c1	active
CC1(C=O)CCC23COC4(CCC5C6(C)CCC(OC7OCC(OC8OC(CO)C(O)C(OC9OC(CO)C(O)C(O)C9O)C8OC8OCC(O)C(O)C8O)C(O)C7OC7OC(CO)C(O)C(O)C7O)C(C)(C)C6CCC5(C)C4(C)CC2O)C3C1 (centres undefined)	active
O/N=C1\c2ccccc2-c2ccc(F)cc21	active
CCc1oc2ccccc2c1C(=O)c1cc(Br)c(O)c(Br)c1	active
